// data source = patent US20240116985A1

- method.description: CHI Log D procedure
- Format: physicochemical
- measurement.parameters: pH 7.4
CHI Log D: recorded values

[
  {
    "molecule": "CC(=O)N1CCC[C@]12CC=CCCCC1(CCCC=CCCCCCC[C@@](C)(C(=O)N[C@@H](Cc3ccccc3Cl)C(=O)N[C@@H](Cc3csc4ccccc34)C(=O)N[C@@H](CCC(N)=O)C(N)=O)NC(=O)[C@H]([C@@H](C)O)NC(=O)[C@H](Cc3ccccc3)NC(=O)[C@H](C)NC(=O)[C@H](C)NC(=O)[C@H](CC(=O)O)NC(=O)[C@H](CC(=O)O)NC1=O)NC(=O)[C@H](CC(C)(C)C)NC(=O)[C@H](CC(=O)O)NC2=O (stereo partly drawn) [I-1087]",
    "CHI Log D": 2.766
  },
  {
    "molecule": "CC(=O)N1CCC[C@]12CC=CCCCC1(CCCC=CCCCCCC[C@@](C)(C(=O)N[C@@H](Cc3ccccc3)C(=O)N[C@@H](Cc3csc4ccccc34)C(=O)N[C@@H](CCC(N)=O)C(N)=O)NC(=O)[C@H](CC(N)=O)NC(=O)[C@H](Cc3ccccc3)NC(=O)[C@H](C)NC(=O)[C@H](C)NC(=O)[C@H](CCC(=O)O)NC(=O)[C@H](CNS(C)(=O)=O)NC1=O)NC(=O)[C@H](C)NC(=O)[C@H](CC(=O)O)NC2=O (stereo partly drawn) [I-530]",
    "CHI Log D": 2.935
  },
  {
    "molecule": "CC[C@H](C)[C@@H]1NC(=O)[C@H](CC(=O)O)NC(=O)[C@]2(CC=CCCCC3(CCCC=CCCCCCC[C@@](C)(C(=O)N[C@@H](Cc4ccccc4)C(=O)N[C@@H](Cc4csc5ccccc45)C(N)=O)NC(=O)[C@H](CCC(N)=O)NC(=O)[C@H](Cc4ccccc4)NC(=O)[C@H](C)NC(=O)[C@H](C)NC(=O)[C@H](CCC(=O)O)NC(=O)[C@H](CC(=O)O)NC3=O)NC1=O)CCCN2C(C)=O (stereo partly drawn) [I-408]",
    "CHI Log D": 2.674
  }
]

---

- tgt: full-length beta-Catenin (Uniprot ID P35222) (Homo sapiens, UniProt P35222)
- Construct: 10 nM full-length beta-Catenin (Uniprot ID P35222)
- Sequence (P35222 whole entry): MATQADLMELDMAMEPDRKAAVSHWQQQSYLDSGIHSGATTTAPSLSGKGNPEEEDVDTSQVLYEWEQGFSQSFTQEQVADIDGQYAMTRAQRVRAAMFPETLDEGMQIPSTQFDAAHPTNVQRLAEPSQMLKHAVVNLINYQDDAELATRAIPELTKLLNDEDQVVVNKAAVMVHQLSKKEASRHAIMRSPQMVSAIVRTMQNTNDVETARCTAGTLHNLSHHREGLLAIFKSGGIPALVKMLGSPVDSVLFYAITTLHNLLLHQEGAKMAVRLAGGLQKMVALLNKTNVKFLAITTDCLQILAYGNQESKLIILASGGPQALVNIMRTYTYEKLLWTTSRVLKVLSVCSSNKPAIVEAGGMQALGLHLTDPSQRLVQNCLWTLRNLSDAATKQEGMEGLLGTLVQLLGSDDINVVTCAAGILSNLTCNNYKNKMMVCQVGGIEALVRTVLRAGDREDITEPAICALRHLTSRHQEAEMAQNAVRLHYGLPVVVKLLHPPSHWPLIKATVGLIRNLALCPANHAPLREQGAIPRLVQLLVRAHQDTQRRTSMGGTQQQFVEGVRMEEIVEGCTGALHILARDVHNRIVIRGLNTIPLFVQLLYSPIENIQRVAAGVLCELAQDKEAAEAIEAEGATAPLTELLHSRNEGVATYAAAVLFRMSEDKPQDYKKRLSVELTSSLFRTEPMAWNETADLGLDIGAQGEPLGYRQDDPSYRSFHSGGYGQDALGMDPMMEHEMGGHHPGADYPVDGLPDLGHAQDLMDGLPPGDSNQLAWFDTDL
- method.description: Fluorescence polarization IC50 (beta-catenin / 5FAM-TCF4 10-53 competition)
- Assay type: binding
- measurement.parameters: fluorescence polarization; read-out: beta-Catenin FP IC50
pIC50: −log10 of the molar value.

[
  {
    "compound": "CC(=O)N1CCC[C@]12CC=CCCCC1(CCCC=CCCCOC(=O)N3CC[C@@](C(=O)N[C@@H](Cc4ccsc4)C(=O)N[C@@H](Cc4csc5ccccc45)C(=O)N[C@@H](CC(N)=O)C(N)=O)(C3)NC(=O)[C@H](CO)NC(=O)[C@H](Cc3ccccc3)NC(=O)[C@H](C)NC(=O)[C@H](C)NC(=O)[C@H](Cc3cccc(C(=O)O)c3)NC(=O)[C@H](CC(=O)O)NC1=O)NC(=O)[C@H](CC(C)(C)C)NC(=O)[C@H](CC(=O)O)NC2=O (some centres unmarked)",
    "pIC50": 8.30
  },
  {
    "compound": "CC(=O)N1CCC[C@]12CC=CCCCC1(CCCC=CCCCOC(=O)N3CC[C@@](C(=O)N[C@@H](Cc4ccccc4Cl)C(=O)N[C@@H](Cc4csc5ccccc45)C(=O)N[C@@H](CC(C)C)C(N)=O)(C3)NC(=O)[C@H](CC(C)C)NC(=O)[C@H](Cc3ccccc3)NC(=O)[C@H](C)NC(=O)[C@H](CCCCNC(C)C)NC(=O)[C@H](CC(=O)O)NC(=O)[C@H](CC(=O)O)NC1=O)NC(=O)[C@H](CC(C)(C)C)NC(=O)[C@H](CC(=O)O)NC2=O (some centres unmarked)",
    "pIC50": 7.77
  }
]

---

- tgt: full-length beta-Catenin (Uniprot ID P35222) (Homo sapiens)
- Construct: 10 nM full-length beta-Catenin (Uniprot ID P35222)
- method.description: Fluorescence polarization IC50 (beta-catenin / 5FAM-TCF4 10-53 competition)
- Assay type: binding
- measurement.parameters: fluorescence polarization; read-out: beta-Catenin FP IC50
IC50: recorded values
property.label: IC50 (nM)

[
  {
    "compound": "CC(=O)N1CCC[C@]12CC=CCCCC1(CCCC=CCCCOC(=O)N3CC[C@@](C(=O)N[C@@H](Cc4ccccc4Cl)C(=O)N[C@@H](Cc4csc5ccccc45)C(=O)N[C@@H](CC(C)C)C(N)=O)(C3)NC(=O)[C@H](CO)NC(=O)[C@H](Cc3ccccc3)NC(=O)[C@H](C)NC(=O)[C@H](C)NC(=O)[C@H](CC(=O)O)NC(=O)[C@H](CC(=O)O)NC1=O)NC(=O)[C@H](CC1CCCCC1)NC(=O)[C@H](CC(=O)O)NC2=O (stereo partly drawn) [I-1138]",
    "tgt": "full-length beta-Catenin (Uniprot ID P35222) (Homo sapiens)",
    "property.label": "IC50",
    "units": "nM",
    "recorded.measurement": 18
  },
  {
    "compound": "CC[C@@H]1NC(=O)[C@H](CC(=O)O)NC(=O)[C@]2(CC=CCCCC3(CCCC=CCCCCCC[C@@](C)(C(=O)N[C@@H](Cc4ccccc4)C(=O)N[C@@H](Cc4csc5ccccc45)C(=O)N[C@@H](CCC(N)=O)C(N)=O)NC(=O)[C@H](CC(N)=O)NC(=O)[C@H](Cc4ccccc4)NC(=O)[C@H](C)NC(=O)[C@H](C)NC(=O)[C@H](CC(=O)O)NC(=O)[C@H](CC(=O)O)NC3=O)NC1=O)CCCN2C(C)=O (stereo partly drawn) [I-572]",
    "tgt": "full-length beta-Catenin (Uniprot ID P35222) (Homo sapiens)",
    "property.label": "IC50",
    "units": "nM",
    "recorded.measurement": 73
  },
  {
    "compound": "CC(=O)N1CCC[C@]12CC=CCCCC1(CCCC=CCCCCCC[C@@](C)(C(=O)N[C@@H](Cc3ccccc3)C(=O)N[C@@H](Cc3csc4ccccc34)C(=O)N[C@@H](Cc3c[nH]cn3)C(N)=O)NC(=O)[C@H](CCC(N)=O)NC(=O)[C@H](Cc3ccccc3)NC(=O)[C@H](C)NC(=O)[C@H](C)NC(=O)[C@H](CCC(=O)O)NC(=O)[C@H](CC(=O)O)NC1=O)NC(=O)[C@H](CC(F)(F)F)NC(=O)[C@H](CC(=O)O)NC2=O (stereo partly drawn) [I-504]",
    "tgt": "full-length beta-Catenin (Uniprot ID P35222) (Homo sapiens)",
    "property.label": "IC50",
    "units": "nM",
    "recorded.measurement": 65
  }
]

---

IC50: recorded values
- tgt: full-length beta-Catenin (Uniprot ID P35222) (Homo sapiens)
- Construct: 10 nM full-length beta-Catenin (Uniprot ID P35222)
- method.description: Fluorescence polarization IC50 (beta-catenin / 5FAM-TCF4 10-53 competition)
- Format: binding
- measurement.parameters: fluorescence polarization, beta-catenin; read-out: FP EC50

[
  {
    "compound": "CC(=O)N1CCC[C@]12CC=CCCCC1(CCCC=CCCCOC(=O)N3CC[C@@](C(=O)N[C@@H](Cc4ccccc4)C(=O)N[C@@H](Cc4csc5ccccc45)C(=O)N[C@@H](CCC(N)=O)C(N)=O)(C3)NC(=O)[C@H](CC(C)C)NC(=O)[C@H](Cc3ccccc3)NC(=O)[C@H](C)NC(=O)[C@H](CCCCNC(C)C)NC(=O)[C@H]([C@@H](C)O)NC(=O)[C@H](CC(=O)O)NC1=O)NC(=O)[C@H](CC(C)(C)C)NC(=O)[C@H](CC(N)=O)NC2=O (stereo partly drawn) [I-1288]",
    "IC50": "1160 nM"
  },
  {
    "compound": "CC(=O)N1CCC[C@]12CC=CCCCC1(CCCC=CCCCOC(=O)N3CC[C@@](C(=O)N[C@@H](Cc4ccccc4Cl)C(=O)N[C@@H](Cc4csc5ccccc45)C(=O)N[C@@H](CCC(N)=O)C(N)=O)(C3)NC(=O)[C@H](CC(C)C)NC(=O)[C@H](Cc3ccccc3)NC(=O)[C@H](C)NC(=O)[C@H](C)NC(=O)[C@H](CC(=O)O)NC(=O)[C@H](CC(=O)O)NC1=O)NC(=O)[C@H](CC1CCCCC1)NC(=O)[C@H](CC(=O)O)NC2=O (stereo partly drawn) [I-1075]",
    "IC50": "567 nM"
  },
  {
    "compound": "CC(=O)N1CCC[C@]12CC=CCCCC1(CCCC=CCCCOC(=O)N3CC[C@@](C(=O)N[C@@H](Cc4ccsc4)C(=O)N[C@@H](Cc4csc5ccccc45)C(=O)N[C@@H](CO)C(N)=O)(C3)NC(=O)[C@H](CC(N)=O)NC(=O)[C@H](Cc3ccccc3)NC(=O)[C@H](C)NC(=O)[C@H](C)NC(=O)[C@H](CN(CC(=O)O)CC(F)(F)F)NC(=O)[C@H](CC(=O)O)NC1=O)NC(=O)[C@H](CC(C)(C)C)NC(=O)[C@H](CC(=O)O)NC2=O (stereo partly drawn) [I-941]",
    "IC50": "2110 nM"
  }
]
